tested on: SF-539 CNS; assay: NCI-60 one-dose screen, 48 h; conditions: 10 µM unless noted
Compounds without any hit were thinned out: in the full panel of roughly 83,000, 20% have a hit. Active and inactive are the calls of the source. How the source made its calls: active means growth percent below 10; inactive means the rest.
Possible outcomes: active, inactive

molecule	category_label
CN(CCNc1ccc(C(=N)N)cc1)c1ccc(C(=N)N)cc1	inactive
Cc1nc2ccccc2c(/C=C/c2ccc(Cl)cc2)c1C(=O)/C=C/c1ccccc1	active
Clc1nc(N2CCC[N+]3(CC2)CC[N+]2(CCCNCC2)CC3)nc(N2CCC[N+]3(CC2)CC[N+]2(CCCNCC2)CC3)n1 (centres undefined)	inactive
O=C(/C=C/c1ccco1)c1ccc(Nc2ccnc3cc(Cl)ccc23)cc1	inactive
Nc1nc(Nc2ccc([N+](=O)[O-])cc2O)nc(C(Cl)(Cl)Cl)n1	inactive
COc1ccc(C2CC(=O)Oc3c(OC)c4c(c(OC)c32)OCO4)cc1 (centres undefined)	inactive
Nc1nc(=O)n([C@H]2CC=C(CO)O2)cc1F	inactive
CC(C)CCc1nc2ccc(NCc3ccc(OCCN4CCC(C)CC4)cc3)cc2[nH]1	inactive
CCOC(=O)C1=CCC(n2cc(F)c(=O)[nH]c2=O)O1 (centres undefined)	inactive
CCOC(=O)c1c(C)n2c(=O)cc(C)c3c(OC(C)=O)c(OC(C)=O)cc1c32	inactive
N#CSCc1cc(Cl)c(CSC#N)cc1Cl	inactive
CC(=O)[C@H]1CC[C@]2(C)[C@@H]1CC[C@@H]1[C@@]3(C)C/C(=C/c4cccnc4)C(=O)C(C)(C)[C@@H]3CC[C@]12C	inactive
CO[C@H]1/C=C/O[C@@]2(C)Oc3c(C)c(O)c4c(O)c(c5c(nc6cc(C)ccn65)c4c3C2=O)NC(=O)/C(C)=C\C=C\[C@H](C)[C@H](O)[C@@H](C)C(O)[C@@H](C)[C@H](OC(C)=O)[C@@H]1C (some centres undefined)	inactive
Nc1ccc(Cl)c2c(=O)c3ccccc3[nH]c12	inactive
CC(C)=CC(=O)C1C(=O)c2ccccc2C1=O	inactive
Cc1c(-c2cnc3ccc(Cl)cc3c2C(=O)O)nnn1-c1ccc(Cl)cc1	inactive
CCC(=C(c1ccc(OCCN(CC)CC)cc1)c1ccc(OCCN(CC)CC)cc1)c1ccc(Cl)cc1	active
CN1/C(=C/C=C/c2n(Cc3ccc4ccccc4c3)c(Cl)c(Cl)[n+]2Cc2ccc3ccccc3c2)Oc2ccccc21	active
O=C1/C(=C/c2ccc(Br)cc2)COc2ccc(O)cc21	inactive
Nc1ncc(-c2ccc3ncnc(N4CCc5cc(F)c(Cl)cc54)c3c2)cc1C=O	inactive
O=C1c2ccccc2C(=O)c2cc(Cn3c[n+](Cc4ccc5ccccc5c4)c4ccccc43)ccc21	inactive
C=CCn1c(SCC(=O)Nc2ccc(C(=O)/C=C/c3ccc(Cl)cc3)cc2)nnc1-c1ccccc1	inactive
CCN1C(=O)N(CC)C2C1NN=c1s/c(=C\c3ccccc3)c(=O)n12 (centres undefined)	active
C=CCn1c(SCC(=O)Nc2ccc(C(=O)/C=C/c3cc(OC)c(OC)c(OC)c3)cc2)nnc1-c1cc(-c2ccc(S(N)(=O)=O)cc2)nc2ccccc12	inactive
CCCCC#Cc1c(I)n(C2OC(CO[Si](C)(C)C(C)(C)C)C3OC(C)(C)OC32)c(=O)[nH]c1=O (centres undefined)	inactive
O=S(=O)(c1ccc(NCSc2nc3ccccc3s2)cc1)c1ccc(NCSc2nc3ccccc3s2)cc1	inactive
Cn1cc(-c2csc(-c3cn(CCO)c4ccc(F)cc34)n2)c2cccnc21	inactive
CN(C)c1ccc(Cc2cc(-c3ccccc3)nn(C/C(=N/O)c3ccccc3)c2=O)cc1	inactive
c1ccc2cc(Cn3cc[n+](Cc4ccc5ccccc5c4)c3)ccc2c1	inactive
COc1ccc(Cn2cc(C(=O)N=Nc3c(O)[nH]c4ccc(Br)cc34)nn2)cc1	inactive
COc1ccc(-c2nc3cc(C(=O)NC4CCCCC4)ccc3n2C2CCCCC2)cc1	inactive
CC1=C(C(=O)OCc2ccccc2)C(c2ccc3c(c2)OCO3)n2c(nc3ccccc32)N1 (centres undefined)	active
O=C(Nc1ncc(Cc2ccc(Cl)cc2)s1)C1=NCCCCN1	inactive
c1ccc(Cn2cc3c(c2)-c2nc(Nc4ccccc4)ncc2CC3)cc1	inactive
N#C/C(=C/C=C/c1ccccc1)S(=O)c1ccccc1 (centres undefined)	active
CCOC(=O)/C(=C\c1ccccc1Cl)P(=O)(OCC)OCC	inactive
O=C(Nc1ncc(Cc2ccccc2)s1)c1cc(-c2ccccc2)nc2ccccc12	inactive
Brc1ccc(-c2nn(-c3ccccc3)cc2-c2nn[nH]n2)s1	inactive
CCOC(=O)c1cnc2sc(-c3ccc(OC)cc3)nc2c1Cl	inactive

Provenance of the data: PubChem BioAssay (NCI)
